- testedSystem: Deoxycytidine kinase (Homo sapiens, UniProt P27707)
- Sequence (P27707 whole entry): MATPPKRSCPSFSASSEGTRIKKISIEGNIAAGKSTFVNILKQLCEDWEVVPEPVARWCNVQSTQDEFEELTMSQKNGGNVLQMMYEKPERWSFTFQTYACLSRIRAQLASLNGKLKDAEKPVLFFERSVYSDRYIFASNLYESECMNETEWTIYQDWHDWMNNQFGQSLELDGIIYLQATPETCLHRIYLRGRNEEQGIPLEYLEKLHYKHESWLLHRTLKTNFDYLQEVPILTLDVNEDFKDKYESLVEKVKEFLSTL
- assayComment: Inhibition of human deoxycytidine kinase by lysate filter binding assay
measuredQuantity: pIC50
pIC50 is defined as minus the log10 of a concentration measured in mol/L.

>>> testvalue("Nc1nc(=O)n([C@H]2CC[C@H](NS(=O)(=O)c3ccc(Br)cc3)C2)cc1F")
5.57
>>> testvalue("Cc1cc(Cl)ccc1-c1cccc(S(=O)(=O)N[C@H]2CC[C@H](n3cc(F)c(N)nc3=O)C2)c1")
7.68
>>> testvalue("Nc1nc(=O)n([C@H]2CC[C@H](NS(=O)(=O)c3ccc(-c4ccccc4)cc3)C2)cc1F")
6.46

The compound listed as "NC(=O)c1ccc(-c2cccc(S(=O)(=O)N[C@H]3CC[C@H](n4cc(F)c(N)nc4=O)C3)c2)cc1" shows pIC50 equal to 7.05

The compound listed as "Nc1nc(=O)n([C@H]2CC[C@H](NS(=O)(=O)c3ccc([N+](=O)[O-])cc3)C2)cc1F" shows pIC50 equal to 5.49

The compound listed as "Nc1nc(=O)n([C@H]2CC[C@H](NS(=O)(=O)c3cccc(Br)c3)C2)cc1F" shows pIC50 equal to 5.72

The compound listed as "Nc1nc(=O)n([C@H]2CC[C@H](NC(=O)c3cccc(-c4ccccc4)c3)C2)cc1F" shows pIC50 equal to 6.59

The compound listed as "Cc1cc(Cl)ccc1-c1cccc(C(=O)N[C@H]2CC[C@H](n3cc(F)c(N)nc3=O)C2)c1" shows pIC50 equal to 7.68

The compound listed as "Nc1nc(=O)n([C@H]2CC[C@H](NC(=O)c3cccc(-c4ccc(Cl)cc4)c3)C2)cc1F" shows pIC50 equal to 7.38

The compound listed as "Nc1nc(=O)n([C@H]2CC[C@H](NS(=O)(=O)c3cccc(-c4ccc(Cl)cc4Cl)c3)C2)cc1F" shows pIC50 equal to 7.68

The compound listed as "Nc1nc(=O)n([C@H]2CC[C@H](NS(=O)(=O)c3cccc(-c4ccccc4)c3)C2)cc1F" shows pIC50 equal to 6.92

The compound listed as "Nc1nc(=O)n([C@H]2CC[C@H](NC(=O)c3cc(-c4cc5ccccc5s4)ccn3)C2)cc1F" shows pIC50 equal to 8.77

---

Recorded measurements of AUC(0-inf), one per entry
- assayComment: AUC ((0 to infinity)) in mouse at 10 mg/kg, po
- Assay type: ADME, organism-based
- Parameters: time infinity, dose 10 mg/kg, route oral
- reportedConditions: plasma

>>> testvalue("Nc1nc(=O)n([C@H]2CC[C@H](NS(=O)(=O)c3cccc(-c4ccc(Cl)cc4)c3)C2)cc1F")
"5.2 µM·h"
>>> testvalue("Nc1nc(=O)n([C@H]2CC[C@H](NC(=O)c3cc(-c4cc5ccccc5s4)ccn3)C2)cc1F")
"22 µM·h"
>>> testvalue("COc1ccc(-c2cccc(C(=O)N[C@H]3CC[C@H](n4cc(F)c(N)nc4=O)C3)c2)cc1")
"3.8 µM·h"
>>> testvalue("Cc1cc(Cl)ccc1-c1cccc(S(=O)(=O)N[C@H]2CC[C@H](n3cc(F)c(N)nc3=O)C2)c1")
"2.3 µM·h"
>>> testvalue("COc1ccc(-c2cccc(S(=O)(=O)N[C@H]3CC[C@H](n4cc(F)c(N)nc4=O)C3)c2)cc1")
"0.6 µM·h"

The compound listed as "Nc1nc(=O)n([C@H]2CC[C@H](NC(=O)c3cccc(-c4ccc(Cl)cc4)c3)C2)cc1F" shows AUC(0-inf) equal to 15.8 µM·h

The compound listed as "Cc1cc(Cl)ccc1-c1cccc(C(=O)N[C@H]2CC[C@H](n3cc(F)c(N)nc3=O)C2)c1" shows AUC(0-inf) equal to 10.8 µM·h

---

- testedSystem: Deoxycytidine kinase (Homo sapiens)
- assayComment: Inhibition of human deoxycytidine kinase by lysate filter binding assay
measuredQuantity: pIC50
pIC50 is defined as minus the log10 of a concentration measured in mol/L.

>>> testvalue("CS(=O)(=O)c1ccc(-c2cccc(S(=O)(=O)N[C@H]3CC[C@H](n4cc(F)c(N)nc4=O)C3)c2)cc1")
7.20
>>> testvalue("Nc1nc(=O)n([C@H]2CC[C@H](NC(=O)c3cccc(-c4cccc(Cl)c4)c3)C2)cc1F")
7.64
>>> testvalue("Nc1nc(=O)n([C@H]2CC[C@H](NS(=O)(=O)c3cccc(-c4cccc(Cl)c4)c3)C2)cc1F")
7.10

The molecule listed as "Nc1nc(=O)n([C@H]2CC[C@H](NS(=O)(=O)c3cccc(-c4ccc(C(=O)O)cc4)c3)C2)cc1F" shows pIC50 equal to 4.82

The molecule listed as "Nc1nc(=O)n([C@H]2CC[C@H](NS(=O)(=O)c3cccc(-c4ccccc4Cl)c3)C2)cc1F" shows pIC50 equal to 7.35

The molecule listed as "Cc1ccc(-c2cccc(S(=O)(=O)N[C@H]3CC[C@H](n4cc(F)c(N)nc4=O)C3)c2)cc1" shows pIC50 equal to 6.96

The molecule listed as "Nc1nc(=O)n([C@H]2CC[C@H](NS(=O)(=O)c3cccc(-c4ccc(Cl)cc4)c3)C2)cc1F" shows pIC50 equal to 7.29

The molecule listed as "COc1ccc(-c2cccc(C(=O)N[C@H]3CC[C@H](n4cc(F)c(N)nc4=O)C3)c2)cc1" shows pIC50 equal to 7.52

---

- assayComment: Terminal volume of distribution in mouse at 1 mg/kg, iv
- Type: ADME, organism-based
- Set-up: dose 1 mg/kg, route intravenous
- reportedConditions: in vivo, read-out: Vz
Recorded measurements of Vd, one per entry
Report only the number, with the unit L/kg understood.

Study these solved cases before continuing.
>>> testvalue("Nc1nc(=O)n([C@H]2CC[C@H](NS(=O)(=O)c3cccc(-c4ccc(Cl)cc4)c3)C2)cc1F")
16
>>> testvalue("Nc1nc(=O)n([C@H]2CC[C@H](NC(=O)c3cc(-c4cc5ccccc5s4)ccn3)C2)cc1F")
0.8
>>> testvalue("Cc1cc(Cl)ccc1-c1cccc(C(=O)N[C@H]2CC[C@H](n3cc(F)c(N)nc3=O)C2)c1")
1.6

The compound listed as "Nc1nc(=O)n([C@H]2CC[C@H](NC(=O)c3cccc(-c4ccc(Cl)cc4)c3)C2)cc1F" shows Vd equal to 0.2

---

Recorded measurements of bioavailability, one per entry
- assayComment: Bioavailability in mouse at 10 mg/kg, po
- Assay type: ADME, organism-based
- reportedConditions: in vivo

Study these solved cases before continuing.
>>> testvalue("COc1ccc(-c2cccc(C(=O)N[C@H]3CC[C@H](n4cc(F)c(N)nc4=O)C3)c2)cc1")
"17%"
>>> testvalue("Nc1nc(=O)n([C@H]2CC[C@H](NC(=O)c3cc(-c4cc5ccccc5s4)ccn3)C2)cc1F")
"42%"
>>> testvalue("Cc1cc(Cl)ccc1-c1cccc(C(=O)N[C@H]2CC[C@H](n3cc(F)c(N)nc3=O)C2)c1")
"58%"

The molecule listed as "Nc1nc(=O)n([C@H]2CC[C@H](NC(=O)c3cccc(-c4ccc(Cl)cc4)c3)C2)cc1F" shows bioavailability equal to 12%

The molecule listed as "COc1ccc(-c2cccc(S(=O)(=O)N[C@H]3CC[C@H](n4cc(F)c(N)nc4=O)C3)c2)cc1" shows bioavailability equal to 9%

The molecule listed as "Cc1cc(Cl)ccc1-c1cccc(S(=O)(=O)N[C@H]2CC[C@H](n3cc(F)c(N)nc3=O)C2)c1" shows bioavailability equal to 15%

---

- assayComment: Clearance in mouse at 1 mg/kg, iv
- Type: ADME, organism-based
- Parameters: dose 1 mg/kg, route intravenous
- reportedConditions: in vivo
The threshold is 20 mL/min/kg. Values of clearance beneath it are tagged Y; values meeting or exceeding it are tagged N.

Solved entries (count: 3):
>>> cat("COc1ccc(-c2cccc(C(=O)N[C@H]3CC[C@H](n4cc(F)c(N)nc4=O)C3)c2)cc1")
"Y"
>>> cat("Nc1nc(=O)n([C@H]2CC[C@H](NC(=O)c3cccc(-c4ccc(Cl)cc4)c3)C2)cc1F")
"Y"
>>> cat("Cc1cc(Cl)ccc1-c1cccc(S(=O)(=O)N[C@H]2CC[C@H](n3cc(F)c(N)nc3=O)C2)c1")
"N"

Take the compound "Nc1nc(=O)n([C@H]2CC[C@H](NS(=O)(=O)c3cccc(-c4ccc(Cl)cc4)c3)C2)cc1F" and say whether its clearance is less than 20 mL/min/kg.
N

Take the compound "Nc1nc(=O)n([C@H]2CC[C@H](NC(=O)c3cc(-c4cc5ccccc5s4)ccn3)C2)cc1F" and say whether its clearance is less than 20 mL/min/kg.
Y

Take the compound "COc1ccc(-c2cccc(S(=O)(=O)N[C@H]3CC[C@H](n4cc(F)c(N)nc4=O)C3)c2)cc1" and say whether its clearance is less than 20 mL/min/kg.
N
